System: LOC_OS01G51400-cb002;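 also: purified Escherichia coli-expressed rice kinase domain construct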
Assay: thermal shift delta Tm vs DMSO control; higher = stronger stabilization (binding)
Details: 12.5 µM; protein concentration 2 µM
Counter-ions that a name gives are not always drawn.
measure: thermal shift delta Tm (°C)

1. CCCCCCCCc1ccc(CCC(N)(CO)CO)cc1 [Fingolimod (FTY720) HCl]: -1.12
2. Nc1nc(Nc2ccc(S(N)(=O)=O)cc2)nn1C(=O)c1c(F)cccc1F: 0.49
3. COc1c(C)c(C(=O)c2ccc(N)c(C(=O)O)c2)n2ccccc12: 0.21
4. CN(C)Cc1cccc(N/C(=C2\C(=O)Nc3cc(C(N)=O)ccc32)c2ccccc2)c1: 0.08
5. Nc1cccc(-c2cc3c(Oc4cccc(O)c4)ncnc3[nH]2)c1: 0.45
6. Cc1ccc(C(=O)Nc2ccc(Oc3cc4cnn(C)c4cc3-c3cn[nH]c3)c(F)c2)c(=O)n1-c1ccc(F)cc1: 0.84
7. Cc1ccc(Nc2nccc(N(C)c3ccc4c(C)n(C)nc4c3)n2)cc1S(N)(=O)=O: 0.3
8. COc1cc2nccc(Oc3ccc(NC(=O)NC4CC4)c(Cl)c3)c2cc1C(N)=O [Lenvatinib (E7080)]: 0.04
9. CC(C)(C)c1nc(-c2cccc(NS(=O)(=O)c3c(F)cccc3F)c2F)c(-c2ccnc(N)n2)s1: 0.33
